# TARGET OR SYSTEM: Stp1 (UniProt B3LFK1)
# Sequence: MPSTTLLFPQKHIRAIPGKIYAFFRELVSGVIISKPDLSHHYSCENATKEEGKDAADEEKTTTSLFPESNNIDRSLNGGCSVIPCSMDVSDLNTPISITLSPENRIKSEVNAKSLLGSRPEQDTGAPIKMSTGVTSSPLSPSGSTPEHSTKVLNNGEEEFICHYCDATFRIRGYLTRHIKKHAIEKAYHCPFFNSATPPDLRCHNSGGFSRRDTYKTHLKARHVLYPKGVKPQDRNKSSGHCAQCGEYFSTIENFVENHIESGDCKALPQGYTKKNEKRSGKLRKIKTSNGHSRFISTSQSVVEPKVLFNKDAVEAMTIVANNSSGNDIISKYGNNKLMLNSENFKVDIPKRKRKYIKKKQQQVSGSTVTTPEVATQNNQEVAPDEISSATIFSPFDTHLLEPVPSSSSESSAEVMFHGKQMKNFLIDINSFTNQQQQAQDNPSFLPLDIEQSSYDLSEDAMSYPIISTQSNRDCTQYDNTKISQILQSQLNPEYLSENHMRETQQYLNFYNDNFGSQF
# METHOD SUMMARY: PBM E-score (8-mer binding enrichment) (E-score (-0.5 to 0.5)); higher = stronger / more preferred TF binding
# DETAILS: protein concentration: 200 nM; construct: GST-full length
Over roughly 33,000 sequences, “E-score (-0.5 to 0.5)” has its median near -0.016; the highest 2% begin near 0.32. Many of the other results were omitted from the sample, so the highest values are more common in it than they were.
Param threshold (-0.04) applies to PBM E-score; output Yes when value >= threshold, No when value < threshold.

## Task Is reported PBM E-score greater than or equal to -0.04 here: CCGCCGCC
## Result Yes

## Task Is reported PBM E-score greater than or equal to -0.04 here: CAAGCCGC
## Result Yes

## Task Is reported PBM E-score greater than or equal to -0.04 here: ACGCCGCC
## Result Yes

## Task Is reported PBM E-score greater than or equal to -0.04 here: CTGCCAGC
## Result No

## Task Is reported PBM E-score greater than or equal to -0.04 here: GCTGCCCC
## Result Yes

## Task Is reported PBM E-score greater than or equal to -0.04 here: AAAGCCGC
## Result Yes

## Task Is reported PBM E-score greater than or equal to -0.04 here: ACGCCGAT
## Result Yes

## Task Is reported PBM E-score greater than or equal to -0.04 here: AAAGCCAC
## Result Yes

## Task Is reported PBM E-score greater than or equal to -0.04 here: GCGCCGCC
## Result Yes

## Task Is reported PBM E-score greater than or equal to -0.04 here: CTAAGAGC
## Result No

## Task Is reported PBM E-score greater than or equal to -0.04 here: ACAGCCGA
## Result No

## Task Is reported PBM E-score greater than or equal to -0.04 here: CGGGCATA
## Result No

## Task Is reported PBM E-score greater than or equal to -0.04 here: ACGCCGAC
## Result Yes

## Task Is reported PBM E-score greater than or equal to -0.04 here: AAAGCCTC
## Result Yes

## Task Is reported PBM E-score greater than or equal to -0.04 here: GAAGCCGC
## Result Yes

## Task Is reported PBM E-score greater than or equal to -0.04 here: ATACAGCC
## Result Yes

## Task Is reported PBM E-score greater than or equal to -0.04 here: GCGCCTCC
## Result Yes

## Task Is reported PBM E-score greater than or equal to -0.04 here: AAAGCCGT
## Result Yes

## Task Is reported PBM E-score greater than or equal to -0.04 here: CACACTCA
## Result Yes

## Task Is reported PBM E-score greater than or equal to -0.04 here: ACAGCCGT
## Result Yes

## Task Is reported PBM E-score greater than or equal to -0.04 here: GACTACGC
## Result No

## Task Is reported PBM E-score greater than or equal to -0.04 here: AGCCTATG
## Result No
